Every entry's value here was drawn from BindingDB's records for doi:10.1021/jm00163a033.

# Assayed target: Thymidine kinase (Human herpesvirus 2)
# Protocol details: Inhibition of TdR phosphorylation using thymidine kinase (TK) assay for herpes simplex virus type 2 (HSV-2).
Observed property: Ki (nM)
Numbers only; they are read as nM.

Could you share which Ki value was measured for CCCCCCNC1=NC(=O)C2N=CN([C@H]3C[C@H](O)[C@@H](CO)O3)C2=N1 (stereo partly specified) ? 2000
